test: Drug metabolism in human serum assessed as psilocin formation at 2.5 uM after 120 mins by LC-MS analysis; format: ADME, cell-free; details: 2 h
Recorded Drug metabolism for the following molecules
assayReadout: Drug metabolism (µM)

[[record]]
itemsmiles = "CN(C)CCc1c[nH]c2cccc(OC(=O)c3cccc(C(=O)Oc4cccc5[nH]cc(CCN(C)C)c45)c3)c12"
unit = "µM"
measurednumber = 0

[[record]]
itemsmiles = "CC(C)[Si](C(C)C)(C(C)C)n1cc(CCN(C)C)c2c(OC(=O)Sc3ccccc3)cccc21"
unit = "µM"
measurednumber = 0

[[record]]
itemsmiles = "CN(C)CCc1c[nH]c2cccc(OC(=O)c3ccc(Br)cc3)c12"
unit = "µM"
measurednumber = 2.01

[[record]]
itemsmiles = "CC(C)OC(=O)OCOc1cccc2c1c(CCN(C)C)cn2COC(=O)OC(C)C"
unit = "µM"
measurednumber = 0

[[record]]
itemsmiles = "CN(C)CCc1c[nH]c2cccc(OC(=O)CC3CC3)c12"
unit = "µM"
measurednumber = 0.778

[[record]]
itemsmiles = "CN(C)CCc1c[nH]c2cccc(OC(=O)c3c(F)c(F)c(F)c(F)c3F)c12"
unit = "µM"
measurednumber = 0.45

[[record]]
itemsmiles = "CN(C)CCc1c[nH]c2cccc(O[Si](C)(C)C(C)(C)C)c12"
unit = "µM"
measurednumber = 0

[[record]]
itemsmiles = "COc1ccc(C(=O)Oc2cccc3[nH]cc(CCN(C)C)c23)cc1"
unit = "µM"
measurednumber = 1.097

[[record]]
itemsmiles = "CC(C)[Si](C(C)C)(C(C)C)n1cc(CCN(C)C)c2c(OC(=O)OCC3CC3)cccc21"
unit = "µM"
measurednumber = 0

[[record]]
itemsmiles = "CN(C)CCc1c[nH]c2cccc(O[Si](c3ccccc3)(c3ccccc3)C(C)(C)C)c12"
unit = "µM"
measurednumber = 0


---

test: Metabolic stability in human serum assessed as half life at 2.5 uM measured upto 120 mins in presence of NADPH by LC-MS analysis; type: ADME, cell-free; conditions: 2 h
assayReadout: t1/2 (s)

[[record]]
molecule = "CN(C)CCc1c[nH]c2cccc(OC(=O)c3c(F)c(F)c(F)c(F)c3F)c12"
assayreadout = "t1/2"
unit = "s"
measurednumber = 42

[[record]]
molecule = "CCOC(=O)[C@@H](C)NP(=O)(Oc1ccccc1)Oc1cccc2c1c(CCN(C)C)cn2[Si](C(C)C)(C(C)C)C(C)C (stereo partly drawn)"
assayreadout = "t1/2"
unit = "s"
measurednumber = 8700

[[record]]
molecule = "COCCOCCOCC(=O)Oc1cccc2[nH]cc(CCN(C)C)c12"
assayreadout = "t1/2"
unit = "s"
measurednumber = 48


---

test: Drug metabolism in human intestine microsomes assessed as psilocin formation at 2.5 uM after 120 mins by LC-MS analysis; format: ADME, Microsome; conditions: 2 h
assayReadout: Drug metabolism (µM)

[[record]]
itemsmiles = "CN(C)CCc1c[nH]c2cccc(OC(=O)c3ccc(Br)cc3)c12"
unit = "µM"
measurednumber = 0.018

[[record]]
itemsmiles = "CN(C)CCc1c[nH]c2cccc(OC(=O)OCc3ccccc3)c12"
unit = "µM"
measurednumber = 0.038

[[record]]
itemsmiles = "CN(C)CCc1cn(C(=O)OCc2ccccc2)c2cccc(OC(=O)OCc3ccccc3)c12"
unit = "µM"
measurednumber = 0

[[record]]
itemsmiles = "CN(C)CCc1c[nH]c2cccc(OC(=O)OCC3CC3)c12"
unit = "µM"
measurednumber = 0.157

[[record]]
itemsmiles = "CCCCC(=O)OCOc1cccc2[nH]cc(CCN(C)C)c12"
unit = "µM"
measurednumber = 0.081

[[record]]
itemsmiles = "CN(C)CCc1c[nH]c2cccc(OC(=O)c3cccc(C(=O)Oc4cccc5[nH]cc(CCN(C)C)c45)c3)c12"
unit = "µM"
measurednumber = 0

[[record]]
itemsmiles = "CN(C)CCc1c[nH]c2cccc(OC(=O)c3cccc4c3OCCO4)c12"
unit = "µM"
measurednumber = 0

[[record]]
itemsmiles = "CC(C)[Si](Oc1cccc2[nH]cc(CCN(C)C)c12)(C(C)C)C(C)C"
unit = "µM"
measurednumber = 0

[[record]]
itemsmiles = "CN(C)CCc1c[nH]c2cccc(OP(=O)(Oc3ccccc3)Oc3ccccc3)c12"
unit = "µM"
measurednumber = 0.076

[[record]]
itemsmiles = "CN(C)CCc1c[nH]c2cccc(OP3(=O)OCC(C)(C)CO3)c12"
unit = "µM"
measurednumber = 0


---

assay: Metabolic stability in human liver S9 fraction assessed as half life at 2.5 uM measured upto 120 mins in presence of NADPH by LC-MS analysis; format: ADME, subcellular; settings: s9, 2 h, 2.5 µM
assayReadout: t1/2 (min)

[[record]]
itemsmiles = "CN(C)CCc1c[nH]c2cccc(OC(=O)c3c(F)c(F)c(F)c(F)c3F)c12"
assayreadout = "t1/2"
measurednumber = 1

[[record]]
itemsmiles = "CN(C)CCc1c[nH]c2cccc(OP(=O)(Oc3ccccc3)Oc3ccccc3)c12"
assayreadout = "t1/2"
measurednumber = 96

[[record]]
itemsmiles = "CC(C)[Si](C(C)C)(C(C)C)n1cc(CCN(C)C)c2c(OC(=O)OCC3CC3)cccc21"
assayreadout = "t1/2"
measurednumber = 49


---

assay: Metabolic stability in human liver S9 fraction assessed as half life at 2.5 uM measured upto 120 mins in presence of NADPH by LC-MS analysis; type: ADME, subcellular; conditions: s9, 2 h, 2.5 µM
assayReadout: log10 of t1/2 (log10 of the value in min)

[[record]]
compound = "CCOC(=O)[C@@H](C)NP(=O)(Oc1ccccc1)Oc1cccc2c1c(CCN(C)C)cn2[Si](C(C)C)(C(C)C)C(C)C (some centres undefined)"
assayreadout = "log10 of t1/2"
measurednumber = 1.41

[[record]]
compound = "CC(C)[Si](Oc1cccc2[nH]cc(CCN(C)C)c12)(C(C)C)C(C)C"
assayreadout = "log10 of t1/2"
measurednumber = 1.98

[[record]]
compound = "CC(C)[Si](C(C)C)(C(C)C)n1cc(CCN(C)C)c2c(OC(=O)Sc3ccccc3)cccc21"
assayreadout = "log10 of t1/2"
measurednumber = 0.85

[[record]]
compound = "CCCC(=O)OCOc1cccc2[nH]cc(CCN(C)C)c12"
assayreadout = "log10 of t1/2"
measurednumber = 0.60

[[record]]
compound = "CC(C)[Si](C(C)C)(C(C)C)n1cc(CCN(C)C)c2c(OCc3ccc(F)cc3)cccc21"
assayreadout = "log10 of t1/2"
measurednumber = 1.78

[[record]]
compound = "CCC(=O)OCOc1cccc2c1c(CCN(C)C)cn2C(=O)CC"
assayreadout = "log10 of t1/2"
measurednumber = 1.20

[[record]]
compound = "CC(C)OC(=O)OCOc1cccc2c1c(CCN(C)C)cn2COC(=O)OC(C)C"
assayreadout = "log10 of t1/2"
measurednumber = 2.47

[[record]]
compound = "CN(C)CCc1c[nH]c2cccc(OC(=O)c3cccc4c3OCCO4)c12"
assayreadout = "log10 of t1/2"
measurednumber = 2.72

[[record]]
compound = "CC(C)[Si](C(C)C)(C(C)C)n1cc(CCN(C)C)c2c(OC(=O)c3ccc(Br)cc3)cccc21"
assayreadout = "log10 of t1/2"
measurednumber = 1.18


---

experiment: Drug metabolism in human liver S9 fraction assessed as psilocin formation at 2.5 uM after 120 mins by LC-MS analysis; assay type: ADME, subcellular; conditions: s9, 2 h
Kindly note that classification relies on Drug metabolism with these boundaries: b0 = under 0.01 µM, b1 = from 0.01 µM up to 0.5 µM, b2 = 0.5 µM and over

[[record]]
molecule = "CN(C)CCc1c[nH]c2cccc(O[Si](C)(C)C(C)(C)C)c12"
qualitativelabel = "b0"

[[record]]
molecule = "CN(C)CCc1c[nH]c2cccc(O[Si](c3ccccc3)(c3ccccc3)C(C)(C)C)c12"
qualitativelabel = "b0"

[[record]]
molecule = "CN(C)CCc1c[nH]c2cccc(OC(=O)OCc3ccccc3)c12"
qualitativelabel = "b1"

[[record]]
molecule = "CN(C)CCc1c[nH]c2cccc(OC(=O)c3ccc(Br)cc3)c12"
qualitativelabel = "b2"

[[record]]
molecule = "CN(C)CCc1c[nH]c2cccc(OC(=O)c3c(F)c(F)c(F)c(F)c3F)c12"
qualitativelabel = "b2"

[[record]]
molecule = "CCC(=O)OCOc1cccc2c1c(CCN(C)C)cn2C(=O)CC"
qualitativelabel = "b0"

[[record]]
molecule = "CN(C)CCc1c[nH]c2cccc(OP(=O)(O)O)c12 [PSILOCYBIN]"
qualitativelabel = "b0"

[[record]]
molecule = "CCC(=O)Oc1cccc2c1c(CCN(C)C)cn2[Si](C(C)C)(C(C)C)C(C)C"
qualitativelabel = "b1"

[[record]]
molecule = "COCCOCCOCC(=O)Oc1cccc2[nH]cc(CCN(C)C)c12"
qualitativelabel = "b0"

[[record]]
molecule = "CN(C)CCc1c[nH]c2cccc(OC(=O)OCC3CC3)c12"
qualitativelabel = "b2"

[[record]]
molecule = "CN(C)CCc1c[nH]c2cccc(OC(=O)c3cccc4c3OCCO4)c12"
qualitativelabel = "b1"

[[record]]
molecule = "CC(C)OC(=O)OCOc1cccc2c1c(CCN(C)C)cn2COC(=O)OC(C)C"
qualitativelabel = "b1"

[[record]]
molecule = "CN(C)CCc1c[nH]c2cccc(OP(=O)(Oc3ccccc3)Oc3ccccc3)c12"
qualitativelabel = "b1"

[[record]]
molecule = "CN(C)CCc1c[nH]c2cccc(OC(=O)CC3CC3)c12"
qualitativelabel = "b2"

[[record]]
molecule = "CC(C)[Si](C(C)C)(C(C)C)n1cc(CCN(C)C)c2c(OC(=O)c3ccc(Br)cc3)cccc21"
qualitativelabel = "b2"

[[record]]
molecule = "CC(C)[Si](Oc1cccc2[nH]cc(CCN(C)C)c12)(C(C)C)C(C)C"
qualitativelabel = "b0"

[[record]]
molecule = "CC(C)[Si](C(C)C)(C(C)C)n1cc(CCN(C)C)c2c(OC(=O)OCC3CC3)cccc21"
qualitativelabel = "b1"

[[record]]
molecule = "CCOC(=O)[C@@H](C)NP(=O)(Oc1ccccc1)Oc1cccc2c1c(CCN(C)C)cn2[Si](C(C)C)(C(C)C)C(C)C (stereo partly specified)"
qualitativelabel = "b1"

[[record]]
molecule = "COc1ccc(C(=O)Oc2cccc3[nH]cc(CCN(C)C)c23)cc1"
qualitativelabel = "b2"

[[record]]
molecule = "CCCC(=O)OCOc1cccc2[nH]cc(CCN(C)C)c12"
qualitativelabel = "b1"

[[record]]
molecule = "COC(=O)c1cccc(C(=O)Oc2cccc3[nH]cc(CCN(C)C)c23)c1"
qualitativelabel = "b1"

